Reference source for all entries: patent US11820756B2

Experimental system: human bradykinin B2 receptor (hB2R) (Homo sapiens)
Sequence (P30411 1-391): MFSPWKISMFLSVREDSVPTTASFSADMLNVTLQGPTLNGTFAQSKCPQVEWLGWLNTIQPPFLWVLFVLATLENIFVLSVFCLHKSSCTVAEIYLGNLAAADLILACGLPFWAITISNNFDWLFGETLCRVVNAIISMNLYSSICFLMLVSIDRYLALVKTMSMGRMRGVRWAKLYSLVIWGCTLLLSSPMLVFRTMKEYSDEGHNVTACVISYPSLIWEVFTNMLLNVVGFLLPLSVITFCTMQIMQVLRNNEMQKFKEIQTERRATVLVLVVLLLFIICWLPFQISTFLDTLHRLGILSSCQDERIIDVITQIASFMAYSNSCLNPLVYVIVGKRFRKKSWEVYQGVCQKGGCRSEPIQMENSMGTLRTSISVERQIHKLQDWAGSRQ
Measurement description: cell-based human bradykinin B2 receptor calcium mobilization (hB2R-CaM) assay
Applied conditions: HTS041C cells, bradykinin at EC80, calcium mobilization; read-out: IC50-value towards human bradykinin B2 receptor (hB2R)
pIC50: −log10 of the molar value.
Attribute measured: pIC50

INSERT INTO measurements (compound, attribute_measured, recorded_result) VALUES
  ('Cc1cc(-c2ncnn2C)c2cccc(OCc3c(Cl)cc(F)cc3[C@H](C)NC(=O)C(F)F)c2n1 [Compound 147]', 'pIC50', '≥ 7.30'),
  ('Cc1cc(-n2nc(C)nc2C)c2cccc(OCc3c(Cl)cc(F)cc3[C@H](C)NC(=O)C(C)(C)O)c2n1 [Compound 138]', 'pIC50', '6.60 to 7.29'),
  ('Cc1cc(-n2cc(F)cn2)c2cccc(OCc3c(Cl)cc(F)cc3[C@H](C)NC(=O)C3CNC3)c2n1 [Compound 68]', 'pIC50', '6.60 to 7.29'),
  ('Cc1cc(-n2cc(F)cn2)c2cccc(OCc3c(Cl)cc(F)cc3[C@H](C)NC(=O)C(C)(C)O)c2n1 [Compound 23]', 'pIC50', '6.60 to 7.29');

* * *

Experimental system: human bradykinin B2 receptor (hB2R) (Homo sapiens, UniProt P30411)
Sequence (P30411 1-391): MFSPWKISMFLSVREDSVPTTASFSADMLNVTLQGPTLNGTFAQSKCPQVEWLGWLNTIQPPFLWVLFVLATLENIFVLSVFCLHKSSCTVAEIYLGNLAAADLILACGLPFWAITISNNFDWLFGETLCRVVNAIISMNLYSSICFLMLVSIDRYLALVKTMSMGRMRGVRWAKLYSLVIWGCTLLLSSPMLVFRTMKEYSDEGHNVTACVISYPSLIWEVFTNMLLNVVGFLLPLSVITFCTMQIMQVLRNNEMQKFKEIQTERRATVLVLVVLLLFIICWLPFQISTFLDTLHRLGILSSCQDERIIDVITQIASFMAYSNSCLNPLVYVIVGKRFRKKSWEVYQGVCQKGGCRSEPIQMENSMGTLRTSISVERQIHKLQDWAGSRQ
Measurement description: cell-based human bradykinin B2 receptor calcium mobilization (hB2R-CaM) assay
Applied conditions: HTS041C cells, bradykinin at EC80, calcium mobilization; read-out: IC50-value towards human bradykinin B2 receptor (hB2R)
Attribute measured: IC50

INSERT INTO results (compound, recorded_result) VALUES
  ('Cc1cc(-n2nc(C)nc2C)c2cccc(OCc3c(Cl)cc(F)cc3[C@H](C)NC(=O)c3cc(C)on3)c2n1 [Compound 136]', '0.051 to 0.25 µM'),
  ('Cc1cc(-c2ncnn2C)c2cccc(OCc3c(Cl)cc(F)cc3[C@H](C)NC(=O)[C@H](C)F)c2n1 [Compound 203]', '≤ 0.05 µM'),
  ('Cc1cc(-c2ncnn2C)c2cccc(OCc3c(Cl)cc(F)cc3[C@H](C)NC(=O)CC(F)F)c2n1 [Compound 197]', '≤ 0.05 µM'),
  ('Cc1cc(-c2ccnn2C)c2cccc(OCc3c(Cl)cc(F)cc3[C@H](C)NC(=O)c3cnco3)c2n1 [Compound 196]', '≤ 0.05 µM'),
  ('[2H][C@@](C)(NC(=O)c1cocn1)c1cc(F)cc(Cl)c1COc1cccc2c(-n3ncnc3C)cc(C)nc12 [Compound 198]', '≤ 0.05 µM'),
  ('Cc1cc(-n2cc(F)cn2)c2cccc(OCc3c(Cl)cc(F)cc3[C@H](C)NC(=O)[C@H]3CCC(=O)N3)c2n1 [Compound 115]', '0.051 to 0.25 µM'),
  ('Cc1cc(-n2cc(F)cn2)c2cccc(OCc3c(Cl)cc(F)cc3[C@H](C)NC(=O)C[C@@H](C)O)c2n1 [Compound 26]', '≤ 0.05 µM'),
  ('CCc1ncnn1-c1cc(C)nc2c(OCc3c(Cl)cc(F)cc3[C@H](C)NC(=O)C(C)F)cccc12 (stereo partly shown) [Compound 172]', '≤ 0.05 µM'),
  ('Cc1cc(-c2ccnn2C)c2cccc(OCc3c(Cl)cc(F)cc3[C@H](C)NC(=O)COC(F)F)c2n1 [Compound 175]', '≤ 0.05 µM'),
  ('[2H][C@@](C)(NC(=O)COC(F)F)c1cc(F)cc(Cl)c1COc1cccc2c(-c3ncnn3C)cc(C)nc12 [Compound 11]', '≤ 0.05 µM'),
  ('Cc1cc(-c2ncnn2C)c2cccc(OCc3c(Cl)cc(F)cc3[C@H](C)NC(=O)C3(C)CCCO3)c2n1 (stereo partly shown) [Compound 119]', '0.051 to 0.25 µM'),
  ('Cc1cc(-n2cc(F)cn2)c2cccc(OCc3c(Cl)cc(F)cc3[C@H](C)NC(=O)[C@H](O)CC(C)C)c2n1 [Compound 47]', '0.251 to 1 µM'),
  ('Cc1cc(-c2ncnn2C)c2cccc(OCc3c(Cl)cc(F)cc3[C@H](C)NC(=O)C(C)(F)F)c2n1 [Compound 178]', '≤ 0.05 µM'),
  ('Cc1cc(-n2cc(F)cn2)c2cccc(OCc3c(Cl)cc(F)cc3[C@H](C)NC(=O)[C@@H]3CCOC3)c2n1 [Compound 19]', '≤ 0.05 µM'),
  ('[2H][C@@](C)(NC(=O)[C@@H](C)F)c1cc(F)cc(Cl)c1COc1cccc2c(-c3ncnn3C)cc(C)nc12 [Compound 211]', '≤ 0.05 µM'),
  ('Cc1cc(-n2cc(F)cn2)c2cccc(OCc3c(Cl)cc(F)cc3[C@H](C)NC(=O)C3CCC(C)(C)O3)c2n1 (stereo partly shown) [Compound 109]', '0.051 to 0.25 µM'),
  ('Cc1cc(-n2cc(F)cn2)c2cccc(OCc3c(Cl)cc(F)cc3[C@H](C)NC(=O)[C@@H](O)CC(C)C)c2n1 [Compound 46]', '0.051 to 0.25 µM'),
  ('COC(=O)[C@H](O)CC(=O)N[C@@H](C)c1cc(F)cc(Cl)c1COc1cccc2c(-n3cc(F)cn3)cc(C)nc12 [Compound 69]', '0.051 to 0.25 µM'),
  ('Cc1cc(-n2ncnc2C)c2cccc(OCc3c(Cl)cc(F)cc3[C@H](C)NC(=O)c3ccon3)c2n1 [Compound 157]', '≤ 0.05 µM'),
  ('CCc1ncnn1-c1cc(C)nc2c(OCc3c(Cl)cc(F)cc3[C@H](C)NC(=O)c3cocn3)cccc12 [Compound 170]', '≤ 0.05 µM'),
  ('Cc1cc(-n2cc(F)cn2)c2cccc(OCc3c(Cl)cc(F)cc3[C@H](C)NC(=O)C3(C)COC3)c2n1 [Compound 58]', '≤ 0.05 µM'),
  ('Cc1cc(-c2ccnn2C)c2cccc(OCc3c(Cl)cc(F)cc3[C@H](C)NC(=O)[C@H](C)O)c2n1 [Compound 195]', '≤ 0.05 µM'),
  ('Cc1cc(-n2cc(F)cn2)c2cccc(OCc3c(Cl)cc(F)cc3[C@H](C)NC(=O)[C@@H](O)CCN)c2n1 [Compound 66]', '0.051 to 0.25 µM'),
  ('Cc1cc(-c2ncnn2C)c2cccc(OCc3c(Cl)cc(F)cc3[C@H](C)NC(=O)c3ccccn3)c2n1 [Compound 164]', '≤ 0.05 µM'),
  ('Cc1cc(-n2cc(F)cn2)c2cccc(OCc3c(Cl)cc(F)cc3[C@H](C)NC(=O)c3cc(C)n(C)n3)c2n1 [Compound 86]', '0.051 to 0.25 µM'),
  ('Cc1cc(-n2cc(F)cn2)c2cccc(OCc3c(Cl)cc(F)cc3[C@H](C)NC(=O)C(C)(C)CO)c2n1 [Compound 60]', '≤ 0.05 µM'),
  ('Cc1cc(-n2cc(F)cn2)c2cccc(OCc3c(Cl)cc(F)cc3[C@H](C)NC(=O)[C@@H](O)CCN(C)C)c2n1 [Compound 72]', '0.251 to 1 µM'),
  ('Cc1cc(-c2ncnn2C)c2cccc(OCc3c(Cl)cc(F)cc3[C@H](C)NC(=O)C3CCC(C)(C)O3)c2n1 (stereo partly shown) [Compound 118]', '≤ 0.05 µM');
